Method notes: Mycobacterium tuberculosis growth inhibition, primary screen (AID 1259343)
Particulars: at 10 µM
Out of some 6,200 compounds screened, about 2,900 (47%) were called active. Rule as the data show it: active = inhibition above about 50%; inactive = the rest. The set was probably picked from earlier hits. Some of the results follow.
Form entry, call: pick from active, inactive

Cc1nnc(SCc2ccc(C(=O)NCc3ccncc3)cc2)n1-c1ccc(F)cc1	inactive
Cc1c2cnnc(Sc3ccc(Cl)cc3)c2c(C)n1C	active
Clc1ccc(Sc2ncccn2)cc1	inactive
Cc1cc(Cc2c(O)nc(N)[nH]c2=O)ccc1OC(C)C	inactive
C(=Nn1c(-c2ccc3c(c2)OCCO3)csc1=NC1CCCCC1)c1cccnc1	inactive
COc1ccc(C2c3cccn3CCN2C(=O)Nc2cccs2)cc1 (configuration not stated)	inactive
CC1=C(C)C(=O)C(CCCCC#CCCCC#CCO)=C(C)C1=O	active
O=C(NC1CCCC1)c1ccccc1NS(=O)(=O)c1ccc(F)c(F)c1F	inactive

### Prompt Hi, sorry to bother you, what did the test record for O=c1cc(-c2c(F)c(F)c(F)c(F)c2F)oc2c(F)c(F)c(F)c(F)c12 ?
### Response active

### Prompt Hi, sorry to bother you, what did the test record for Cc1cc(Cl)cc(C)c1OCC(=O)NNc1ccc(F)cc1 ?
### Response active

### Prompt Hi, sorry to bother you, what did the test record for CC(=NNc1nc(C)cs1)c1ccc(Cl)cc1 ?
### Response inactive

### Prompt Hi, sorry to bother you, what did the test record for Nc1ccc(-n2cnc3ccccc32)cc1 ?
### Response active

###

Method notes: Mycobacterium tuberculosis growth inhibition, primary screen (AID 1259343)
Particulars: at 10 µM
Hit rate of the full screen: of about 6,200 compounds, about 2,900 (47%) were called active. Rule as the data show it: active = inhibition above about 50%; inactive = the rest. So high a share suggests a set chosen from earlier hits. The list shows a part of the results.
Form entry, call: pick from true (1) (active), false (0) (inactive)

Use these answered entries as a reference point.
CCOC(=O)C1CSC(Cc2ccc(OCc3ccc([N+](=O)[O-])cc3)cc2)N1 (stereo unspecified)	true (1)
COC(=O)Cc1ccc(C(=O)CCl)s1	true (1)

### Prompt Hi, sorry to bother you, what did the test record for O=C(Nc1ccccc1)C1CSCN1S(=O)(=O)c1ccc(Cl)cc1C(F)(F)F (stereo unspecified) ?
### Response false (0)

### Prompt Hi, sorry to bother you, what did the test record for COC(=O)C1=C(OC)C(=O)OC12C=CC(=O)C=C2 ?
### Response false (0)

### Prompt Hi, sorry to bother you, what did the test record for Cc1cc(Nc2cccc(=O)[nH]2)n(-c2ccc(Cl)c(Cl)c2)n1 ?
### Response false (0)

### Prompt Hi, sorry to bother you, what did the test record for COc1ccccc1N1CCC(CNc2cncc(Cl)n2)C1 (stereo unspecified) ?
### Response true (1)

###

Method notes: Mycobacterium tuberculosis growth inhibition, primary screen (AID 1259343)
Particulars: at 10 µM, active compounds read high
About 2,900 (47%) of roughly 6,200 compounds were called active. The set was probably picked from earlier hits. This is one part of the list.
Quantity kind: inhibition

The following molecules have reported results that may help.
CC(=O)NCCC1CCN(c2nncc(-c3ccc(Cl)cc3)n2)CC1	38% (inactive)
COC1CCN(c2ccc(-c3nc(CCCc4ccccc4)no3)cn2)CC1	51.1% (active)
COc1ccc2cc(C3CN(CCC(F)(F)C(F)F)CCO3)ccc2c1 (stereo not given)	42.7% (inactive)
Cc1ccc(Cl)cc1NC(=O)CN1CCc2ccccc2C1	91.4% (active)
Cc1cccc(-c2ccc(NC(=O)C3CCN(C(=O)CCc4ccncc4)CC3)cc2)c1	85% (active)

Lab note: measured inhibition of O=C(Nc1ccccc1)c1cccn(OCc2ccccc2F)c1=O was 32.1% (inactive)

Lab note: measured inhibition of C=C(C)c1cccc(C(C)(C)NC(=O)Nc2ncccn2)c1 was -1.81% (inactive)

Lab note: measured inhibition of CC(C)Cc1noc(-c2ccc(-c3ccc(O)cc3)nc2)n1 was 23.2% (inactive)

Lab note: measured inhibition of CC(=O)Nc1ccc(OCc2nnsc2Cl)cc1 was 85.4% (active)

Lab note: measured inhibition of O=C(NCC1CC1)N1Cc2ccccc2C(c2ccccc2)C1 (stereo not given) was 8.6% (inactive)

Lab note: measured inhibition of CCOC(=O)c1ccc(NC(=O)c2cc3cc([N+](=O)[O-])ccc3oc2=N)cc1 was 62.9% (active)

Lab note: measured inhibition of Cc1cc(=O)[nH]c(-n2nc(-c3cccs3)cc2NC(=O)c2ccc(Br)o2)n1 was 97.5% (active)

Lab note: measured inhibition of CCCCCC(C)NC(=O)c1ccc([N+](=O)[O-])s1 (stereo not given) was -12.6% (inactive)

Lab note: measured inhibition of Cc1ccc(C2=NN(C(=O)CN3CCc4ccccc4C3)C(c3ccccc3C)C2)c(C)c1 (stereo not given) was 40.4% (inactive)

Lab note: measured inhibition of N#Cc1c(NC(=O)c2ccc([N+](=O)[O-])s2)sc2c1CCCC2 was 99.4% (active)

Lab note: measured inhibition of CCn1cnc2cc(-c3ccc(Cl)cc3)sc2c1=O was 29.3% (inactive)

Lab note: measured inhibition of N#Cc1nc(COc2ccc(Br)cc2)oc1NCCCn1ccnc1 was 62.4% (active)

Lab note: measured inhibition of Cc1ccc2c(c1)C1CN(C)CCC1N2C(=O)NCC1CCCC1 (stereo not given) was 45.5% (inactive)

Lab note: measured inhibition of Nc1ccc(-c2ccc(-c3nc(CCCc4ccccc4)no3)cn2)cn1 was 59.3% (active)

Lab note: measured inhibition of Cc1nnc(N2C(=O)C(=O)C(=C(O)c3ccc(OC(C)C)cc3)C2c2ccc([N+](=O)[O-])cc2)s1 (stereo not given) was 35.4% (inactive)

Lab note: measured inhibition of O=C(C=Cc1ccc([N+](=O)[O-])cc1)c1ccc(F)cc1 was 25.8% (inactive)

Lab note: measured inhibition of Cc1ccc(C=NNC(=S)NCCCN2CCOCC2)s1 was 102% (active)

Lab note: measured inhibition of CCN(CCS(=O)(=O)c1cc(Cl)ccc1Cl)CC(=O)NC(C)C was -1.76% (inactive)

Lab note: measured inhibition of COCc1[nH]n2c(=O)c(Cl)c(C)nc2c1-c1ccc(C)cc1 was 98.7% (active)

Lab note: measured inhibition of Cc1ccccc1CCNC(=O)Cn1c(-c2cccs2)n[nH]c1=S was 1.7% (inactive)

Lab note: measured inhibition of CCCCNC(=S)N(C)N=Cc1ccc(C)s1 was -20.6% (inactive)

###

Method notes: Mycobacterium tuberculosis growth inhibition, primary screen (AID 1259343)
Particulars: at 10 µM, active compounds read high
The campaign covered roughly 6,200 compounds. About 2,900 (47%) were called active. The set was probably picked from earlier hits. Some of the results follow.
Could you label it Condition met if measured inhibition is 70% or higher, and Condition not met otherwise?

Use these answered entries as a reference point.
CC1CN(C(=O)CN2CCc3sccc3C2c2cccc(F)c2)CCN1C(=O)Nc1ccc([N+](=O)[O-])cc1 (stereo unspecified)	Condition not met
COCCOc1nc(-c2ccc(C(F)(F)F)cc2)n(-c2ccc(NC(=O)C(Cl)c3ccccc3)cc2)n1 (stereo unspecified)	Condition not met
Cc1sc2nc(CSC3=NCCS3)[nH]c(=O)c2c1C	Condition not met

### Prompt Can CC(=O)c1ccc(-c2ccc(Br)s2)cc1 be said to have inhibition at or above 70%?
### Response Condition not met

### Prompt Can CC(C)NC(=O)c1ccc(-c2ccc([N+](=O)[O-])cc2Cl)o1 be said to have inhibition at or above 70%?
### Response Condition not met

### Prompt Can OC(CN1CCc2ccccc2C1)Cn1c2c(c3ccccc31)CCCC2 (stereo unspecified) be said to have inhibition at or above 70%?
### Response Condition not met

### Prompt Can Clc1ccc(C(c2ccc(Cl)cc2)N2CCNCC2)cc1 be said to have inhibition at or above 70%?
### Response Condition not met

### Prompt Can Cc1occc1C(=O)Nc1cc(Cl)ccc1C(=O)O be said to have inhibition at or above 70%?
### Response Condition not met

### Prompt Can CCCS(=O)(=O)Oc1ccc([N+](=O)[O-])cc1-c1nc2ccccc2o1 be said to have inhibition at or above 70%?
### Response Condition met

### Prompt Can CC(=NNC(=S)NC(C)C)c1cccs1 be said to have inhibition at or above 70%?
### Response Condition met

###

Method notes: Mycobacterium tuberculosis growth inhibition, primary screen (AID 1259343)
Particulars: at 10 µM, active compounds read high
Hit rate of the full screen: of about 6,200 compounds, about 2,900 (47%) were called active. The set was probably picked from earlier hits. This is one part of the list.
Could you label it satisfied if measured inhibition is 80% or higher, and not satisfied otherwise?

Use these answered entries as a reference point.
O=C(Nc1ccc(-n2cccn2)cc1)C1CCN(Cc2ccccn2)CC1	satisfied
O=C(Cc1cc(-c2ccc(F)cc2F)on1)NCCCc1ccccc1	not satisfied

Now consider a different compound.
### Prompt Can Cc1nc(C)c(CN2CCC(C(=O)Nc3ccc(-n4cccn4)cc3)CC2)nc1C be said to have inhibition at or above 80%?
### Response satisfied
